Each recorded value in this set is attributed to paper PMC9826267.

- measured-on: UniProt O88070
- Sequence (O88070 1-462): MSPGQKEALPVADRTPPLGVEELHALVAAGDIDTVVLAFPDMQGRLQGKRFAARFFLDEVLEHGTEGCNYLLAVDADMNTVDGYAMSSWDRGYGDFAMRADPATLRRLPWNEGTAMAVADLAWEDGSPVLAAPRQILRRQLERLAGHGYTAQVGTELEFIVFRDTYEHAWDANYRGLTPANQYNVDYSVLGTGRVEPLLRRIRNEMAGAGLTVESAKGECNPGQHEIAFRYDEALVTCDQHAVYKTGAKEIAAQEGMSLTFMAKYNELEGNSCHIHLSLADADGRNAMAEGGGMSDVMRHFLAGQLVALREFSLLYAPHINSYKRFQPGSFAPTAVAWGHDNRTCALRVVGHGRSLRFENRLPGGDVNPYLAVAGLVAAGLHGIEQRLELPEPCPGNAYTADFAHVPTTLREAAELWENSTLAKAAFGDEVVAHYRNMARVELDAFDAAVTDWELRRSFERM
readout-kind: pIC50
// pIC50 is dimensionless: -log10 of concentration (M)

Recorded results for 3 compounds are shown here.
N=S(=O)(CCCO)CC[C@H](N)C(=O)O (stereo partly shown)    4.91
N=S(=O)(CCO)CC[C@H](N)C(=O)O (stereo partly shown)    2.66
CS(=O)(CC[C@H](N)C(=O)O)=NCCO (stereo partly shown)    3.18

Next up:
I'd like to know its pIC50. The compound in question is N=S(=O)(CCCCO)CC[C@H](N)C(=O)O (stereo partly shown) 4.10
